Assign switch fluorescence ratio to each entry below.
Tested on: ATP;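 note: ATP exposure 15 min at 22 °C before imaging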
Assay Notes: switch fluorescence ratio, 500 uM ATP over buffer (Cy3 cluster intensity, sum of 5 cycles each) (fold (ratio)); higher = stronger signal-on switching upon ATP binding; sequences stand for … in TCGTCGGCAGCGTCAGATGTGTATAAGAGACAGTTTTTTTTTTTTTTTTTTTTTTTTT…TC
Run Conditions: aptamer strand: ATP DNA aptamer (quencher-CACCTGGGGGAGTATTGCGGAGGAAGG + anchor), 100 nM annealed; ATP concentration: 500 uM
Could you keep your reply to the number by itself?

Test item TCCAGGGGGA ; ATP; reported switch fluorescence ratio was 1.1

Result for CGCTTGGTTT , tested on ATP, switch fluorescence ratio: 0.991

Field switch fluorescence ratio (ATP), entry GAAAGTTAGG : 1.1

Form field switch fluorescence ratio for item CCGGAGGTCG on ATP: 0.958

Observed switch fluorescence ratio, ATP, GTTCCGGCGT : 1.21

ATP data for TGGGAGCCCG ; its switch fluorescence ratio: 0.985

// sequence GGGGGGCATA , assay ATP, switch fluorescence ratio value: 1.01

With ATP as the test system, TATTCTCTTT showed switch fluorescence ratio of 1.04

// switch fluorescence ratio (ATP) for GTTGCTAAAT = 1

Fill in: ATP switch fluorescence ratio for TGGTTGAGGC = 1.01

Readout switch fluorescence ratio for ATTGCGGCTA , test system ATP, was 1.03

Readout switch fluorescence ratio for AAGGCTTTCT , test system ATP, was 1.02

Simply: CGGGTATTTA , ATP, switch fluorescence ratio = 1.01

Lab note: sequence GGGGACGATA tested on ATP; recorded switch fluorescence ratio was 1

So the reported switch fluorescence ratio for GGCGGGGTGG , on ATP, turned out to be 1.09

Readout switch fluorescence ratio for CAATAAATAT , test system ATP, was 0.97

ATP data for TAAAGGTAGG ; its switch fluorescence ratio: 1.01

switch fluorescence ratio value, target or system ATP, for AGGGGGTTGG : 1

For the sequence AGGTGGGGGA , the measured switch fluorescence ratio on ATP was 0.995

Summary line: ATCGACGTGT , ATP, reported switch fluorescence ratio = 1.02

For the sequence TTTATTTATG , the measured switch fluorescence ratio on ATP was 1.01

Item CGATGGCCCT ; assay system ATP; switch fluorescence ratio reported as 1.03

ATP assay, sequence GCAATTGGGA , recorded switch fluorescence ratio = 1.05

Entry AGAATACGGA , tested on ATP, has a reported switch fluorescence ratio of 1.05

Observed switch fluorescence ratio on ATP, entry GCATTTTATA , equals 1.02

Record GTTAATAACA / ATP, switch fluorescence ratio recorded as 1.01

Case TTGTGGGCAG , ATP, switch fluorescence ratio recorded as 1.03

The reported switch fluorescence ratio value, ATP, for GGCGTGTCGC reads 0.985

Bench note, ATP: CATGGTGCCC , switch fluorescence ratio reads 1.03

With ATP as the test system, TTAGGGAACA showed switch fluorescence ratio of 1.16

Short answer on ATP for TAGCGGGGGC , switch fluorescence ratio: 1.02

Observed switch fluorescence ratio, ATP, TTGGTTGAAC : 0.946

ATP assay, sequence GGTGGGGAAA , recorded switch fluorescence ratio = 1.03

The value of switch fluorescence ratio recorded for GGGGGGAACG when tested on ATP reads 0.971

For the sequence AAGGGGCGCT , the measured switch fluorescence ratio on ATP was 1.01

Observed switch fluorescence ratio, ATP, ATTCCCCGGG : 1.66

switch fluorescence ratio value, target or system ATP, for GAGGTTCCCG : 0.984

Record CCAAGTGTAT / ATP, switch fluorescence ratio recorded as 1.02

TTGTATCTTC on ATP gives switch fluorescence ratio = 0.993

GET /values?item= AAATAACGAG &system= ATP returns switch fluorescence ratio: 1

Here GATTGTAATA was tested on ATP, and its switch fluorescence ratio came to 1.01

Fill in: ATP switch fluorescence ratio for GCAAAAGGTT = 1.01

Record GGTGGATACA ; system ATP; switch fluorescence ratio = 1

ATP data for GCCAAAGATT ; its switch fluorescence ratio: 1

The recorded switch fluorescence ratio with ATP for ATAAAGGTCG was 1.06

// sequence TTTATATTAT , assay ATP, switch fluorescence ratio value: 0.993

Entry CCATAGTGAC under ATP had switch fluorescence ratio of 2.18

Entry GATTGTAGTT : switch fluorescence ratio on ATP = 0.959

The sequence CGTTTAAAAG , tested on ATP, showed switch fluorescence ratio of 0.975

Param item: AAGCTTGCCT ; param system: ATP; output switch fluorescence ratio: 0.987

# lookup: TGAGTTTTAG on ATP, switch fluorescence ratio = 0.972

Hey, ATP data for TGATTTAGTT : switch fluorescence ratio came out at 0.989

// sequence TCTTTGTTG , assay ATP, switch fluorescence ratio value: 1.02

For the sequence GATCATGCTA , the measured switch fluorescence ratio on ATP was 1.02

Observed switch fluorescence ratio on ATP, entry TCGGGGTTGG , equals 0.978

Note to self: switch fluorescence ratio of AAGATGAAT with ATP was 0.975

# GAATGGGGA with ATP: switch fluorescence ratio is 0.986

Measured switch fluorescence ratio for this entry GTATTGTCAG on ATP: 0.966

Record TCCAAGAGTT ; system ATP; switch fluorescence ratio = 0.989

Param item: TGCAGTGATC ; param system: ATP; output switch fluorescence ratio: 1.11

switch fluorescence ratio of TTTCGTTTTT , assay on ATP, is 0.991

The reported switch fluorescence ratio value, ATP, for TTTTGTCTGT reads 1.01

The sequence CTTTTAGTTG on ATP: switch fluorescence ratio was 0.993

# value of switch fluorescence ratio, ATP, item AAAGAGGGGA = 1.03

Value sought: switch fluorescence ratio, system ATP, item GATTTTTGGT . Result: 0.995

The sequence GAGTTCGGGA , tested on ATP, showed switch fluorescence ratio of 1.02

TTGCTTGTTG on ATP gives switch fluorescence ratio = 1.02

switch fluorescence ratio for ATP with input TTGTGGGTCG equals 0.984

The sequence GAAGGGATTA , tested on ATP, showed switch fluorescence ratio of 1.01

Tested on ATP: AATGTAGTTT . Observed switch fluorescence ratio: 0.993

Value (switch fluorescence ratio, ATP) for record ACTAGGCTGG = 1.01

switch fluorescence ratio value, target or system ATP, for CAAATTAGGC : 1.06

Lab entry: ATP assay, sequence TTACGGTCCA , switch fluorescence ratio = 1.05

switch fluorescence ratio value, target or system ATP, for AAAATATTTA : 1.02

Record TGAAGCCTAC has ATP switch fluorescence ratio equal to 2.57

So the reported switch fluorescence ratio for AAACAGGGTA , on ATP, turned out to be 0.991

Entry AAAAGGGGTT ; assay system ATP; switch fluorescence ratio recorded at 1.02

Tested on ATP: GTTATATAGG . Observed switch fluorescence ratio: 0.982

The sequence CCAGTTTACT , tested on ATP, showed switch fluorescence ratio of 1.01

Item TTAATCCCAG ; assay system ATP; switch fluorescence ratio reported as 1.02

switch fluorescence ratio value, target or system ATP, for TCAATTATTT : 1

Summary line: TTATACGGCT , ATP, reported switch fluorescence ratio = 1.11

Item TTAATTGGGT ; assay system ATP; switch fluorescence ratio reported as 1

Entry GCTCGTAAGT under ATP had switch fluorescence ratio of 1.01

Per the reported ATP data, CGTTTGGGCT has switch fluorescence ratio of 1.02

Record GGCTTTGAAG / ATP, switch fluorescence ratio recorded as 0.995
